# Tested on: Escherichia coli TOP10;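 further: peptides expressed intracellularly from a pBAD plasmid library in pooled LB shake-flask culture, induced with 0.3% L-arabinose, DNA abundance read by NGS, three biological replicates, DESeq2 with apeglm shrinkage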
# TEST METHOD NOTES: shrunken log2 fold change of peptide-encoding DNA abundance (4.5 h post-induction vs induction); higher = less antimicrobial activity (less host growth inhibition)
# PROTOCOL CONDITIONS: time post-induction: 4.5 h; library: site-saturation at positions 5, 18, 19, 20
Rule: shrunken log2 fold change of 0.06 or more gives yes (1); anything lower gives no (0).

RRIRLRPPRLPRPRPRPRNNPRP = no (0)
RRIRDRPPRLPRPRPRPKWWPRP = no (0)
RRIRKRPPRLPRPRPRPHTHPRP = no (0)
RRIRPRPPRLPRPRPRPNDNPRP = no (0)
RRIRQRPPRLPRPRPRPQVWPRP = no (0)
RRIRQRPPRLPRPRPRPGQRPRP = no (0)
RRIRCRPPRLPRPRPRPVDRPRP = yes (1)
RRIRCRPPRLPRPRPRPDNSPRP = no (0)
RRIRFRPPRLPRPRPRPCTWPRP = no (0)
RRIRQRPPRLPRPRPRPRKQPRP = yes (1)
RRIRARPPRLPRPRPRPQEAPRP = yes (1)
RRIRDRPPRLPRPRPRPSLDPRP = no (0)
RRIRWRPPRLPRPRPRPMSSPRP = no (0)
RRIRFRPPRLPRPRPRPPKSPRP = yes (1)
RRIRSRPPRLPRPRPRPYQWPRP = yes (1)
RRIRVRPPRLPRPRPRPPWKPRP = no (0)
RRIRHRPPRLPRPRPRPMSGPRP = no (0)
RRIRHRPPRLPRPRPRPRILPRP = yes (1)
RRIRPRPPRLPRPRPRPNFEPRP = yes (1)
RRIRARPPRLPRPRPRPEVQPRP = yes (1)
RRIRNRPPRLPRPRPRPDSLPRP = no (0)
RRIRGRPPRLPRPRPRPPTAPRP = yes (1)
RRIRDRPPRLPRPRPRPIYGPRP = no (0)
RRIRSRPPRLPRPRPRPSGNPRP = no (0)
RRIRMRPPRLPRPRPRPLDYPRP = no (0)
RRIRVRPPRLPRPRPRPDMKPRP = no (0)
RRIRVRPPRLPRPRPRPTWHPRP = yes (1)
RRIRMRPPRLPRPRPRPPTNPRP = yes (1)
RRIRPRPPRLPRPRPRPKAWPRP = no (0)
RRIRKRPPRLPRPRPRPKQLPRP = yes (1)
RRIRGRPPRLPRPRPRPQNNPRP = no (0)
RRIRNRPPRLPRPRPRPLTDPRP = no (0)
